- assay-target: Integrin alpha-4/beta-1 (Homo sapiens, UniProt P05556+P13612)
- Sequence (P05556 whole entry): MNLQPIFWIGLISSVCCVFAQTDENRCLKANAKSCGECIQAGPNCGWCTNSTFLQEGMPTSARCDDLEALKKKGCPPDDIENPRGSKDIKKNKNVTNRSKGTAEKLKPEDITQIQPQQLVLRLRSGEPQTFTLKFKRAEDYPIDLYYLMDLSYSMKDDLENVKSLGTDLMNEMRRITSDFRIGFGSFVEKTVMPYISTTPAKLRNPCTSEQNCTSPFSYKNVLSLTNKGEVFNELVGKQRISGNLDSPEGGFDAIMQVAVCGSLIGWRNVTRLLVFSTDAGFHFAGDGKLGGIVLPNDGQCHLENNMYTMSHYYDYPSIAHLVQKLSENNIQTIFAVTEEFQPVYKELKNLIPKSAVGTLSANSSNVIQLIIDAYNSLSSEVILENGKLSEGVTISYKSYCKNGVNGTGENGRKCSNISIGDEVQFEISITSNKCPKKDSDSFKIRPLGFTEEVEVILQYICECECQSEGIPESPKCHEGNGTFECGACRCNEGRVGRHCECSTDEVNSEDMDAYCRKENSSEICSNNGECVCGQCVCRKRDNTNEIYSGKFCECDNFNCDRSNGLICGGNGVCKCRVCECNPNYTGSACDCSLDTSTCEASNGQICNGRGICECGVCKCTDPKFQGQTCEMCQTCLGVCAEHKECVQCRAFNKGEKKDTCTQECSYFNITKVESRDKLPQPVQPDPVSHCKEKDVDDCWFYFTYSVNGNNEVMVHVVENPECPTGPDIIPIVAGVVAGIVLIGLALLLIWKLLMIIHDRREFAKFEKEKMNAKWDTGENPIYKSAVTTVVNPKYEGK
- Sequence (P13612 whole entry): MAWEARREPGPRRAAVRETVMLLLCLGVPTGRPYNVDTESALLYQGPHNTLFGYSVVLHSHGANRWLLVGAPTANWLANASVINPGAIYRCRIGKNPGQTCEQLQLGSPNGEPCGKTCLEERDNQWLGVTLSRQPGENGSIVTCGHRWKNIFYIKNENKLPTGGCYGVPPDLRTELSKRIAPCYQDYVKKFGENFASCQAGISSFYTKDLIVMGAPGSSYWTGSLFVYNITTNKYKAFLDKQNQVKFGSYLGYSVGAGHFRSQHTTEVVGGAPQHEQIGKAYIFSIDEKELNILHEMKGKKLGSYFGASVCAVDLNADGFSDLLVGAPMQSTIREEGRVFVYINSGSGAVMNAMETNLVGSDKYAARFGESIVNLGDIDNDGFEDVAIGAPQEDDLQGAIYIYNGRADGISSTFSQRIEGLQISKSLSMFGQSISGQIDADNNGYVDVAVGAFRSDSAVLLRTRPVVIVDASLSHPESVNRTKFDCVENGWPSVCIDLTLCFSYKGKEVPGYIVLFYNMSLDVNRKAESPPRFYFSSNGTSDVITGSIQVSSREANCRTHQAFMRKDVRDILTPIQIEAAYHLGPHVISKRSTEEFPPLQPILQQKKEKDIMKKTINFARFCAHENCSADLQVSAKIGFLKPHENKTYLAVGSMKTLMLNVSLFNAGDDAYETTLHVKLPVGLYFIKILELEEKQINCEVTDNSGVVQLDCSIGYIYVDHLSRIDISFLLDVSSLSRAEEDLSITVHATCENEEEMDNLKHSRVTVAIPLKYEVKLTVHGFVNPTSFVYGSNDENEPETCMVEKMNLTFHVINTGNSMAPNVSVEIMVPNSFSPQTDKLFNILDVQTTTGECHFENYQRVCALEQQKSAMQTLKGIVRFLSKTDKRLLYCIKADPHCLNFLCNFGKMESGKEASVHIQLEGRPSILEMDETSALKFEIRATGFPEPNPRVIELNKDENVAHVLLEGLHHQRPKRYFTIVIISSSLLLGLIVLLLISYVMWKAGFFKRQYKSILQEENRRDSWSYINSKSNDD
- assay-summary: Inhibitory binding concentration against VCAM/VLA-4 in ELISA.
- Assay type: protein-complex assay
# IC50 per entry
Answer in nM, number only, no unit symbol.

molecule: Cc1nn(-c2ccccc2)nc1C(=O)N[C@@H](Cc1ccc(NC(=O)c2c(Cl)cccc2Cl)cc1)C(=O)O
metric: IC50
value-observed: 25

Data request: What value of measured IC50 is listed for `CC(=O)c1cccc(Cl)c1C(=O)N[C@@H](Cc1ccc(NC(=O)c2c(Cl)cccc2Cl)cc1)C(=O)O` ?
Data returned: 1.6

Data request: What value of measured IC50 is listed for `CC(C)(C)c1ccccc1C(=O)N[C@@H](Cc1ccc(NC(=O)c2c(Cl)cccc2Cl)cc1)C(=O)O` ?
Data returned: 1.9

Source listed as ChEMBL document CHEMBL1135312.
